Examples of compounds with documented PI3KA_FL Ki follow.
Target: full-length PI3Kα (full-length p110α/p85α) (Homo sapiens (Human))
Sequence (P42336 whole entry): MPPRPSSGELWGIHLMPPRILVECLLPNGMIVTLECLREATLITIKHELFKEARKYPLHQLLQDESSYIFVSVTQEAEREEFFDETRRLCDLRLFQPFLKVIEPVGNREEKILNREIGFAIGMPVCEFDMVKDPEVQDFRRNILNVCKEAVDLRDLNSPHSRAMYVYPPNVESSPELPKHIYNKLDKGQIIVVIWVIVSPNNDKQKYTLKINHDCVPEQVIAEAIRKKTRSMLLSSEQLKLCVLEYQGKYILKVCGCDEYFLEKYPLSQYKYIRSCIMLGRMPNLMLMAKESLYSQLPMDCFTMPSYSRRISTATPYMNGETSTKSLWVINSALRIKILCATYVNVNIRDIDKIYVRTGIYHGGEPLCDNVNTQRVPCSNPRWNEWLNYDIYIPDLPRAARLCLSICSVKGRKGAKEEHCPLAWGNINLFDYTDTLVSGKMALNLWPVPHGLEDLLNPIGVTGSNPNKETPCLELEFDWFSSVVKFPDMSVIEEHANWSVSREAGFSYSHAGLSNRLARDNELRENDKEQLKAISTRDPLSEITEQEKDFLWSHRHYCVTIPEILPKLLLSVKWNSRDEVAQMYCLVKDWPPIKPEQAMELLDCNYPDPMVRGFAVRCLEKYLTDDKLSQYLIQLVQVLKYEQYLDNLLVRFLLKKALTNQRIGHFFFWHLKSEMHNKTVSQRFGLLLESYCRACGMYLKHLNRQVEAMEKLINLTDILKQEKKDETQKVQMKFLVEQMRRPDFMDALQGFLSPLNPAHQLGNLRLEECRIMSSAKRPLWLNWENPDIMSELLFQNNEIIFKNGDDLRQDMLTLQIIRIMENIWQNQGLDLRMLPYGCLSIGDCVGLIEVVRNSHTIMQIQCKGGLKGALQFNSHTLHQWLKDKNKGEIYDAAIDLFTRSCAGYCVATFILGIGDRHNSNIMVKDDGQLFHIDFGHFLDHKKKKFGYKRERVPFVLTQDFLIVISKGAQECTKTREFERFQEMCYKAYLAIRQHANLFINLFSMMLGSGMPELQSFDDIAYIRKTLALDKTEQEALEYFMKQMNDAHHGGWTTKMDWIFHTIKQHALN
Sequence (P27986 whole entry partner): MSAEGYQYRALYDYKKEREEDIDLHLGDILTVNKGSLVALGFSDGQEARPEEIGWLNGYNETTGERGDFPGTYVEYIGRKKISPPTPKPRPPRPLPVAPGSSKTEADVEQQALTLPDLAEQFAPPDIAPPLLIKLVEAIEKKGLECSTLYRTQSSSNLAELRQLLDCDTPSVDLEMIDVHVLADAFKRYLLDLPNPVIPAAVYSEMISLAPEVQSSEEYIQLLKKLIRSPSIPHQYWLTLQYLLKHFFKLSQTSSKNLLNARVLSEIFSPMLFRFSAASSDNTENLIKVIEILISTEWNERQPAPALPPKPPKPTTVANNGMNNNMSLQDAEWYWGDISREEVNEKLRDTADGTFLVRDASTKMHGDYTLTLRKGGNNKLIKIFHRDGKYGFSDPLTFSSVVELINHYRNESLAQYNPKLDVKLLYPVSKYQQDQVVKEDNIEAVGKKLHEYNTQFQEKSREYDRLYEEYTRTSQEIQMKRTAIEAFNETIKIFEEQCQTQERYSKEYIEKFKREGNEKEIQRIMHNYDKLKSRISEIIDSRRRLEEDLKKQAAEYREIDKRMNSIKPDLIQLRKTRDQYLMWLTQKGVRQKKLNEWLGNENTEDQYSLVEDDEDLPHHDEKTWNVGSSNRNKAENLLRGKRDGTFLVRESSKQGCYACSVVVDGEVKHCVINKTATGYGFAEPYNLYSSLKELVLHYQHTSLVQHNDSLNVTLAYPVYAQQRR
Experiment: PI3KA_FL fluorescence polarization kinase assay (Ki)
Type: biochemical
Conditions: 41 μM ATP
Express it in nM; write the number only.

compound=C[C@H]1COCCN1c1nc(-c2cnc(N)nc2)c2c(n1)N(C1CC(F)(F)C1)CC2 tested_system="full-length PI3Kα (full-length p110α/p85α) (Homo sapiens (Human))" unit_label=nM observed=0.462
compound=CC(=O)N[C@H]1C(C)(C)[C@@H](N2CCc3c(-c4cnc(N)nc4)nc(N4CCOCC4)nc32)C1(C)C tested_system="full-length PI3Kα (full-length p110α/p85α) (Homo sapiens (Human))" unit_label=nM observed=7.677
compound=Nc1ncc(-c2nc(N3CCOCC3)nc3c2CCN3C2CCC2)cn1 tested_system="full-length PI3Kα (full-length p110α/p85α) (Homo sapiens (Human))" unit_label=nM observed=6.843
compound=CC(=O)N1CC[C@H](N2CCc3c(-c4cnc(N)nc4)nc(N4CCOCC4)nc32)C1 tested_system="full-length PI3Kα (full-length p110α/p85α) (Homo sapiens (Human))" unit_label=nM observed=1.130

Next up:
Q: Answer with PI3KA_FL Ki of CNS(=O)(=O)N1CC[C@@H](N2CCc3c(-c4cnc(N)nc4)nc(N4CCOC[C@@H]4C)nc32)C1 [Example 92] measured for full-length PI3Kα (full-length p110α/p85α) (Homo sapiens (Human)).
Result: 0.475
